Assay: BSK_hDFCGF_Proliferation: Cell Proliferation Assessment in the BioMAP Diversity Plus: hDFCGF Assay (AID 2283059);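 also: curves fitted for both rise and fall of signal versus DMSO baseline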
Details: primary human foreskin fibroblasts
Description: BSK_hDFCGF is a cell-based, multiplexed-readout assay that uses foreskin fibroblast, a human skin primary cell, with measurements taken at 24 hours after chemical dosing in a 96-well plate.BSK_hDFCGF_Proliferation is an assay component measured in the BSK_hDFCGF assay. It measures […] related to cell proliferation using Sulforhodamine staining technology.Data from the assay component BSK_hDFCGF_Proliferation was analyzed into 1 assay endpoint. […]
Activity calls are given as the source filed them. The calls were made as follows: active = hit-call score of the fitted dose curve at least 0.9, where 1 is the maximum; inactive = score below 0.9.
Choose the fitting class; nothing outside active, inactive is accepted.

**Q:** Test call, this compound: `CCOP(=S)(OCC)SCSC(C)(C)C`
**A:** inactive

**Q:** Try the compound `C[C@]12CCC(=O)C=C1CC[C@@H]1[C@@H]2CC[C@@]2(C)[C@H]1CC[C@]2(C)O`
**A:** inactive

**Q:** Try the compound C1CC2OC2CC1C1CO1 (configuration not stated)
**A:** inactive

**Q:** Try the compound `CC(C)(O)C(=O)Nc1ccc([N+](=O)[O-])c(C(F)(F)F)c1`
**A:** inactive

====

Test: CCTE_Shafer_MEA_dev_active_electrodes_number: CCTE's Neural Network Formation Assay for Number of Active Electrodes, Shafer Lab (AID 2284040)
Results filed as inconclusive are left out. Activity calls are given as the source filed them. Rule for the calls: active = hit-call score of the fitted dose curve at least 0.9, where 1 is the maximum; inconclusive = response in the unintended direction; inactive = score below 0.9.
Choose the fitting class; nothing outside active, inactive is accepted.

Consider the following illustrative entries.
{"columns": ["compound", "label_value"],
 "data": [
  ["CCC(C)(c1ccc(O)cc1)c1ccc(O)cc1", "active"],
  ["ClC(Cl)=C(c1ccc(Cl)cc1)c1ccc(Cl)cc1", "active"],
  ["ClC1=C(Cl)[C@]2(Cl)[C@@H]3[C@@H](Cl)[C@H]4O[C@H]4[C@@H]3C1(Cl)C2(Cl)Cl", "active"],
  ["Clc1ccc(C(c2ccccc2Cl)C(Cl)(Cl)Cl)cc1 (stereo not given)", "active"]
]}

**Q:** Test call, this compound: `C=CC(N)=O`
**A:** inactive

====

Biological target: Estrogen receptor (Homo sapiens) (UniProt P03372)
Sequence (P03372 whole entry, looked up): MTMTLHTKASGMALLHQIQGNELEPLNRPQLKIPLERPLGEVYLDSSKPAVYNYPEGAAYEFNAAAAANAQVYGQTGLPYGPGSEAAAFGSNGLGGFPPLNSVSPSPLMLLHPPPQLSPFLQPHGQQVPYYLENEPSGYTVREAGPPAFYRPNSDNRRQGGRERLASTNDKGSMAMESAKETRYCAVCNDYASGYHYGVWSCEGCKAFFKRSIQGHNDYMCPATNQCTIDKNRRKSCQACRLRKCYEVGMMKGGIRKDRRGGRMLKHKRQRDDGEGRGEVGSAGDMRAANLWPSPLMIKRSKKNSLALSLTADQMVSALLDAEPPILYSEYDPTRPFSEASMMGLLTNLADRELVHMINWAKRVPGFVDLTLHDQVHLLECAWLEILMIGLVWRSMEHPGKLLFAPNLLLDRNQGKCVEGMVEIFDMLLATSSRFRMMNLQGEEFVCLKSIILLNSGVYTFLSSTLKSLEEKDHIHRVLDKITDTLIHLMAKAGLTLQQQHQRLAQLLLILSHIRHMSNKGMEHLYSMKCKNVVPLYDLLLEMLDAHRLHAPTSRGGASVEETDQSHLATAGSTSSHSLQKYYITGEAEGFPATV
Assay: NVS_NR_hER: NovaScreen (NVS) Nuclear Receptor Binding Assay for human Estrogen Receptor (ER) (AID 2283348)
Results filed as inconclusive are left out. Active and inactive are the calls of the source. The calls were made as follows: active = hit-call score of the fitted dose curve at least 0.9, where 1 is the maximum; inconclusive = response in the unintended direction; inactive = score below 0.9.
Choose the fitting class; nothing outside active, inactive is accepted.

Consider the following illustrative entries.
{"columns": ["molecule", "label_value"],
 "data": [
  ["CC(c1ccc(O)cc1)(c1ccc(O)cc1)c1ccc(O)cc1", "active"],
  ["CCCN(CCC)N=O", "inactive"],
  ["CC(C)(O)C(=O)Nc1ccc([N+](=O)[O-])c(C(F)(F)F)c1", "inactive"],
  ["Clc1ccc(C(c2ccccc2Cl)C(Cl)(Cl)Cl)cc1 (stereo not given)", "inactive"],
  ["C=CC(=O)NCNC(=O)C=C", "inactive"]
]}

**Q:** Test call, this molecule: `ClC1=C(Cl)[C@]2(Cl)[C@@H]3[C@@H](Cl)[C@H]4O[C@H]4[C@@H]3C1(Cl)C2(Cl)Cl`
**A:** inactive

====

Test system: zebrafish Estrogen Receptor (ESR2A), gene 317734
Assay: ATG_zfER2a_XSP1: Attagene TRANS-FACTORIAL Multi-Species (XSP1) HepG2 Assay for zebrafish Estrogen Receptor (ESR2A) (AID 2283778)
Records with an inconclusive call do not appear. Activity calls are given as the source filed them. The calls were made as follows: active = hit-call score of the fitted dose curve at least 0.9, where 1 is the maximum; inconclusive = response in the unintended direction; inactive = score below 0.9.
assay_metric: AC50

{"columns": ["molecule", "meas_value"],
 "data": [
  ["CC(C)(c1ccccc1)c1ccc(O)cc1", "inactive"],
  ["Clc1ccc(C(c2ccccc2Cl)C(Cl)(Cl)Cl)cc1 (centres undefined)", "0.679 µM (active)"],
  ["CC(C)(O)C(=O)Nc1ccc([N+](=O)[O-])c(C(F)(F)F)c1", "inactive"],
  ["ClC(Cl)=C(c1ccc(Cl)cc1)c1ccc(Cl)cc1", "10 µM (active)"]
]}
